Exercise: for every item that follows, state its recorded GI50.
# Test system: HL-60(TB) leukemia

{"Smiles entry": "COc1ccccc1CNCCCCCCCCCCCCN1C(=O)c2ccc3c4c(ccc(c24)C1=O)C(=O)N(CCCCCCCCCCCCNCc1ccccc1OC)C3=O", "Value kind": "GI50", "Recorded measurement": "> 50 µM"}
{"Smiles entry": "COc1cc(NC(=O)Nc2cnc(Nc3ccc(N4CCOCC4)cc3)nc2Oc2cccc(OC)c2)cc(OC)c1", "Value kind": "GI50", "Recorded measurement": "2.76 µM"}

Please tell me: GI50 of `Nc1[nH]c(=O)ncc1CO` , system HL-60(TB) leukemia? > 100 µM
